test system: ATP; test: switch fluorescence ratio, 500 uM ATP over buffer (Cy3 cluster intensity, sum of 5 cycles each) (fold (ratio)); higher = stronger signal-on switching upon ATP binding; sequences stand for … in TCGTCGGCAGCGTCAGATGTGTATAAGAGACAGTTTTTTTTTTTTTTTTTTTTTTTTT…TC; details: aptamer strand: ATP DNA aptamer (quencher-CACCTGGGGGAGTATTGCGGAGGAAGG + anchor), 100 nM annealed; ATP concentration: 500 uM;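 also: ATP exposure 15 min at 22 °C before imaging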
Quick rule: switch fluorescence ratio of at least 1 means MET, below that means NOT MET.

Completed entries (count: 4):
| SEQ_STRING | QUALITATIVE_LABEL |
| --- | --- |
| GTTATAGTAT | NOT MET |
| GGAGCTGCGT | MET |
| CGCCAAATG | MET |
| TTTGTGCTC | MET |

# input Could you tell me if the measured switch fluorescence ratio of ATTACGGAGA reaches 1 or more?
# output MET

# input Could you tell me if the measured switch fluorescence ratio of AATAAAATT reaches 1 or more?
# output MET

# input Could you tell me if the measured switch fluorescence ratio of ATATGGCACG reaches 1 or more?
# output MET

# input Could you tell me if the measured switch fluorescence ratio of AGTGGTGTTG reaches 1 or more?
# output NOT MET

# input Could you tell me if the measured switch fluorescence ratio of TTGGTCAAAT reaches 1 or more?
# output MET

# input Could you tell me if the measured switch fluorescence ratio of CATTTGGGCT reaches 1 or more?
# output MET

# input Could you tell me if the measured switch fluorescence ratio of AAGCCTTTGC reaches 1 or more?
# output MET

# input Could you tell me if the measured switch fluorescence ratio of TGGGGCTTTG reaches 1 or more?
# output MET

# input Could you tell me if the measured switch fluorescence ratio of TTTACTTAGC reaches 1 or more?
# output MET

# input Could you tell me if the measured switch fluorescence ratio of AGTTCCTTAG reaches 1 or more?
# output MET

# input Could you tell me if the measured switch fluorescence ratio of TACTGGTCCT reaches 1 or more?
# output MET

Data origin: the supplement of paper PMC10126150
